molecular target: PAF receptor (Oryctolagus cuniculus); construct: centrifuged at 800 rpm for 10-15 minutes at room temperature to recover the platelet rich plasma (PRP); endogenous in cells; host or cells: rabbit platelets (platelet rich plasma from citrated blood of male New Zealand White rabbits); test: In vitro PAF antagonism: inhibition of PAF induced platelet aggregation in rabbit platelet rich plasma; type: cell-based, rabbit (male New Zealand White); conditions: PAF challenge 5.00E-08 M; rabbit PRP
Sequence (G1TEI7 1-342): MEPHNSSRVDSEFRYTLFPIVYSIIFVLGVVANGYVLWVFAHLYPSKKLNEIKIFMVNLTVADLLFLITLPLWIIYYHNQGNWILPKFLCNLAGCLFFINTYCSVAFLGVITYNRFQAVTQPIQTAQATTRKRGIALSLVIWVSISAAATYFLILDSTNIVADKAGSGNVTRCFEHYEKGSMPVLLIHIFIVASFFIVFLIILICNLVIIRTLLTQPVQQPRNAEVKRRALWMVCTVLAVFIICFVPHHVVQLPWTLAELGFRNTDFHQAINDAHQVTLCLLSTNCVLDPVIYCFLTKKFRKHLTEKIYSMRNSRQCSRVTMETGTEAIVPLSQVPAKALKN
pIC50: −log10 of the molar value.
measurementKind: pIC50

>  <recordSmiles>
CCCCCCCCCCCCCCOc1ccc(C(=O)N(Cc2ccc[n+](C)c2)C(C)=O)cc1C(C)(C)C

>  <numericValue>
4.70

$$$$

(a) CCCCCCCCCCCCCCOc1ccc(CC(=O)NCCc2cccc[n+]2C)cc1
(b) CCCCCCCCCCCCCCCCOc1ccc(OCC(=O)N(Cc2cccc[n+]2C)C(C)=O)cc1
stdin: Which value of pIC50 is smaller, the one for a or the one for b ? Respond using the label that marks the chosen record.
stdout: b

----------
Attribute: responders at 0.5 mg/kg
test system: PAF induced lethality in mice; experiment: PAF induced lethality in mice; format: in vivo; conditions: Mus musculus; 0.5 mg/kg IP 1/2 hour before lethal PAF I.V. challenge; alive after 2 hours; control (saline) 10; read-out: % Survival
Give just the numeric value; % need not be written.

>  <recordSmiles>
CCCCCCCCCCCCCCOc1ccc(COC(=O)N(Cc2cccc[n+]2C)C(C)=O)cc1

>  <measurementKind>
responders at 0.5 mg/kg

>  <unitAbbrev>
%

>  <numericValue>
40

$$$$
>  <recordSmiles>
CCCCCCCCCCCCCCOc1ccc(C(=O)N(Cc2cccc[n+]2C)C(C)=O)cc1C(C)(C)C

>  <measurementKind>
responders at 0.5 mg/kg

>  <unitAbbrev>
%

>  <numericValue>
60

$$$$
>  <recordSmiles>
CCCCCCCCCCCCCCOc1ccc(C(=O)N(Cc2cccc[n+]2C)C(C)=O)cc1.[I-]

>  <measurementKind>
responders at 0.5 mg/kg

>  <unitAbbrev>
%

>  <numericValue>
27

$$$$
>  <recordSmiles>
CCCCCCCOc1ccc(C(=O)N(Cc2cccc[n+]2C)C(C)=O)cc1OCCCCCCC

>  <measurementKind>
responders at 0.5 mg/kg

>  <unitAbbrev>
%

>  <numericValue>
45

$$$$
>  <recordSmiles>
CCCCCCCCCCCCCCOc1ccc(C(=O)N(Cc2cccc[n+]2C)C(C)=O)cc1OCCCCCCCCCCCCCC

>  <measurementKind>
responders at 0.5 mg/kg

>  <unitAbbrev>
%

>  <numericValue>
36

$$$$
>  <recordSmiles>
CCCCCCCCCCCCCCOc1ccc(CN(Cc2cccc[n+]2C)S(C)(=O)=O)cc1

>  <measurementKind>
responders at 0.5 mg/kg

>  <unitAbbrev>
%

>  <numericValue>
55

$$$$
>  <recordSmiles>
CCCCCCCCCCCCCCOc1ccc(CN(Cc2ccc[n+](C)c2)C(C)=O)cc1

>  <measurementKind>
responders at 0.5 mg/kg

>  <unitAbbrev>
%

>  <numericValue>
38

$$$$
>  <recordSmiles>
CCCCCCCCCCCCCCOc1cc(C(=O)N(Cc2cccc[n+]2C)C(C)=O)ccc1OC

>  <measurementKind>
responders at 0.5 mg/kg

>  <unitAbbrev>
%

>  <numericValue>
21

$$$$

Proceed to the following item.
stdin: Fill: responders at 0.5 mg/kg (PAF induced lethality in mice) for this compound `CCCCCCCCCCCCCCOc1ccc(C(=O)N(Cc2cccc[n+]2C)C(C)=O)cc1OC`
stdout: 43

----------
Below, each entry is listed alongside its reported responders at 0.5 mg/kg.
system: PAF induced lethality in mice; test: PAF induced lethality in mice; format: in vivo; settings: Mus musculus; 0.5 mg/kg IP 1/2 hour before lethal PAF I.V. challenge; alive after 2 hours; control (saline) 10; read-out: % Survival
Kindly answer with a numeric value in %, unit omitted.

Worked set:
>  <recordSmiles>
CCCCCCCCCCCCCCOc1ccc(CN(C(=O)c2ccc[n+](C)c2)c2ccccc2)cc1

>  <unitAbbrev>
%

>  <responders at 0.5 mg/kg>
69

$$$$
>  <recordSmiles>
CCCCCCCCCCCCCCOc1ccc(N(Cc2ccc[n+](C)c2)C(C)=O)cc1

>  <unitAbbrev>
%

>  <responders at 0.5 mg/kg>
7

$$$$
>  <recordSmiles>
CCCCCCCCCCCCCCOc1ccc(C(=O)N(Cc2cccc[n+]2C)S(C)(=O)=O)cc1

>  <unitAbbrev>
%

>  <responders at 0.5 mg/kg>
88

$$$$
>  <recordSmiles>
CCCCCCCCCCCCCCOc1ccc(C(=O)N(Cc2cccc[n+]2Cc2ccccc2)C(C)=O)cc1

>  <unitAbbrev>
%

>  <responders at 0.5 mg/kg>
0

$$$$
>  <recordSmiles>
CCCCCCCCCCCCCCOc1ccc(C(=O)N(Cc2cccc[n+]2CC)C(C)=O)cc1OC.[I-]

>  <unitAbbrev>
%

>  <responders at 0.5 mg/kg>
29

$$$$
>  <recordSmiles>
CCCCCCCCCCCCCCOc1ccc(CN(C(=O)c2ccc[n+](CCC)c2)c2ccccc2)cc1

>  <unitAbbrev>
%

>  <responders at 0.5 mg/kg>
64

$$$$

stdin: Recall the reported responders at 0.5 mg/kg of `CCCCCCCCCCCCCCOc1ccccc1CN(Cc1cccc[n+]1C)C(C)=O` when tested on PAF induced lethality in mice.
stdout: 23

stdin: Using PAF induced lethality in mice as the test system, report measured responders at 0.5 mg/kg of `CCCCCCCCCCCCCCOc1ccc(C(=O)NCc2cccc[n+]2C)cc1OCCCCCCCCCCCCCC` .
stdout: 0
